# particulars: 303.15 K; 101.33 kPa; Liquid; Pycnometric method
Below, each entry is listed alongside its reported mass density.
Just the number in kg/m3, nothing appended.

>  <compound>
BrCCBr [1,2-dibromoethane]

>  <measurement kind>
mass density

>  <result>
2159.67

$$$$

What value of mass density has been reported for the following compound? ClC(Cl)C(Cl)Cl [1,1,2,2-tetrachloroethane]
1578.57

What value of mass density has been reported for the following compound? ClCCCl [1,2-dichloroethane]
1238.28

What value of mass density has been reported for the following compound? ClC=C(Cl)Cl [trichloroethene]
1451.34

What value of mass density has been reported for the following compound? CC(Cl)(Cl)Cl [1,1,1-trichloroethane]
1320.92

What value of mass density has been reported for the following compound? ClC(Cl)=C(Cl)Cl [tetrachloroethene]
1606.36

----------
Below, each entry is listed alongside its reported Normal boiling temperature.
# particulars: Liquid
Just the number in °C, nothing appended.

Observe how each entry below is paired with its result.
>  <structure string>
ClC(Cl)C(Cl)Cl

>  <measurement kind>
Normal boiling temperature

>  <display unit>
°C

>  <result>
146.10

$$$$
>  <structure string>
ClCCCl

>  <measurement kind>
Normal boiling temperature

>  <display unit>
°C

>  <result>
83.6

$$$$
>  <structure string>
ClC(Cl)=C(Cl)Cl

>  <measurement kind>
Normal boiling temperature

>  <display unit>
°C

>  <result>
121.30

$$$$
>  <structure string>
CC(Cl)(Cl)Cl

>  <measurement kind>
Normal boiling temperature

>  <display unit>
°C

>  <result>
74

$$$$
>  <structure string>
BrCCBr

>  <measurement kind>
Normal boiling temperature

>  <display unit>
°C

>  <result>
131.50

$$$$

Please look at the following compound next.
What value of Normal boiling temperature has been reported for the following compound? "ClC=C(Cl)Cl"
87.2
